Would you mind telling me the reported Particle diameter of Preparation obtained of each entry?
Assay: Average particle diameter of preparation (Zetasizer Nano ZS)
Assay type: physicochemical
Details: preparation with f7 siRNA; liposome/siRNA complex encapsulated by lipid membrane; Examples 52, 53 / Comparative Example 3
Report the figure in nm without appending any unit label.

Answer with reported Particle diameter of Preparation obtained of CCCCC/C=C\C/C=C\CCCCCCCCN(CCCCO)CCCCCCCC/C=C\C/C=C\CCCCC
96.4

Answer with reported Particle diameter of Preparation obtained of CCCCCCCC/C=C\CCCCCCCCN(CCCO)CCCCCCCC/C=C\CCCCCCCC
91.9

Answer with reported Particle diameter of Preparation obtained of CCCCC/C=C\C/C=C\CCCCCCCCN(CCCCCCCC/C=C\C/C=C\CCCCC)C(=O)OCC1CCN(C)CC1
99.7

Answer with reported Particle diameter of Preparation obtained of CCCCC/C=C\C/C=C\CCCCCCCCN(CCCO)CCCCCCCC/C=C\C/C=C\CCCCC
88.3

Answer with reported Particle diameter of Preparation obtained of CCCCC/C=C\C/C=C\CCCCCCCCN(CCCCCCCC/C=C\C/C=C\CCCCC)C(=O)OCC1CCCN1C (stereo not drawn)
104.8

Answer with reported Particle diameter of Preparation obtained of CCCCC/C=C\C/C=C\CCCCCCCCCCN(CCCCCCCCCC/C=C\C/C=C\CCCCC)C(=O)OCCC1CCCN1C (stereo not drawn)
91.4

Answer with reported Particle diameter of Preparation obtained of CCCCC/C=C\C/C=C\CCCCCCCCN(CCCCCCCC/C=C\C/C=C\CCCCC)C(=O)OCCCN1CCCCC1
94.6

Answer with reported Particle diameter of Preparation obtained of CCCCC/C=C\C/C=C\CCCCCCCCN(CCCCCCCCCC)C(=O)OCCCN(C)C
123.1

Answer with reported Particle diameter of Preparation obtained of CCCCC/C=C\C/C=C\CCCCCCCCOCCN(CCCCCCCC/C=C\C/C=C\CCCCC)C(=O)OCCCN(C)C
111.5

Answer with reported Particle diameter of Preparation obtained of CCCCC/C=C\C/C=C\CCCCCCCCN(CCCCCCCC/C=C\C/C=C\CCCCC)C(=O)OCC1CCCN(C)C1 (stereo not drawn)
98.4

Answer with reported Particle diameter of Preparation obtained of CCCCC/C=C\C/C=C\CCCCCCCCOCCN(CCCCCCCC/C=C\C/C=C\CCCCC)C(=O)OCCCN1CCCCC1
103.4

Answer with reported Particle diameter of Preparation obtained of CCCCC/C=C\C/C=C\CCCCCCCCN(CCCCCCCC/C=C\C/C=C\CCCCC)C(=O)OCCCN(C)C
95.9

Answer with reported Particle diameter of Preparation obtained of CCCCC/C=C\C/C=C\CCCCCCCCCCN(CCCO)CCCCCCCCCC/C=C\C/C=C\CCCCC
94.1

Answer with reported Particle diameter of Preparation obtained of CCCCC/C=C\C/C=C\CCCCCCCCOCCN(CCCCCCCC/C=C\C/C=C\CCCCC)C(=O)OCC1CCCN(C)C1 (stereo not drawn)
101.4

Answer with reported Particle diameter of Preparation obtained of CCCCCCCC/C=C\CCCCCCCCN(CCCCCCCC/C=C\CCCCCCCC)C(=O)OCC1CCCN(C)C1 (stereo not drawn)
112.0
